target: IN-CTD (HIV-1, UniProt P12497 1367-1435); assay: BLI; 200 mM NaCl, 37 C; EMSA: 20 mM MES pH 6.0, 150 mM NaCl, 2 mM DTT, 2 mM MgCl2, BSA, 8% PEG8000, 37 C 30 min (IN-FLm 2 h at 4 C); BLI: 50 mM HEPES pH 7.5, 200 mM NaCl, 2 mM BME, 5%; conditions: protein: recombinant; tags: N-terminal 6xHis; label: 3' biotin; hairpin
experimental-readout: pKd
The scale used: pKd is minus the common logarithm of the concentration in molar units.

Provide pKd value for the following binder: GGGCCAGAUCUGAGCCUGGGAGCUCUCUGGCCC (structured_RNA) [Bt-TAR] 6.49
